target: UniProtKB Q15858; experiment: E-VIPR optical membrane potential assay with electrical stimulation; conditions: active against one or more sodium channels; Table 3 does not name the assay or NaV subtype; read-out: Binned Activity Data (IC50)
Sequence (Q15858 whole entry): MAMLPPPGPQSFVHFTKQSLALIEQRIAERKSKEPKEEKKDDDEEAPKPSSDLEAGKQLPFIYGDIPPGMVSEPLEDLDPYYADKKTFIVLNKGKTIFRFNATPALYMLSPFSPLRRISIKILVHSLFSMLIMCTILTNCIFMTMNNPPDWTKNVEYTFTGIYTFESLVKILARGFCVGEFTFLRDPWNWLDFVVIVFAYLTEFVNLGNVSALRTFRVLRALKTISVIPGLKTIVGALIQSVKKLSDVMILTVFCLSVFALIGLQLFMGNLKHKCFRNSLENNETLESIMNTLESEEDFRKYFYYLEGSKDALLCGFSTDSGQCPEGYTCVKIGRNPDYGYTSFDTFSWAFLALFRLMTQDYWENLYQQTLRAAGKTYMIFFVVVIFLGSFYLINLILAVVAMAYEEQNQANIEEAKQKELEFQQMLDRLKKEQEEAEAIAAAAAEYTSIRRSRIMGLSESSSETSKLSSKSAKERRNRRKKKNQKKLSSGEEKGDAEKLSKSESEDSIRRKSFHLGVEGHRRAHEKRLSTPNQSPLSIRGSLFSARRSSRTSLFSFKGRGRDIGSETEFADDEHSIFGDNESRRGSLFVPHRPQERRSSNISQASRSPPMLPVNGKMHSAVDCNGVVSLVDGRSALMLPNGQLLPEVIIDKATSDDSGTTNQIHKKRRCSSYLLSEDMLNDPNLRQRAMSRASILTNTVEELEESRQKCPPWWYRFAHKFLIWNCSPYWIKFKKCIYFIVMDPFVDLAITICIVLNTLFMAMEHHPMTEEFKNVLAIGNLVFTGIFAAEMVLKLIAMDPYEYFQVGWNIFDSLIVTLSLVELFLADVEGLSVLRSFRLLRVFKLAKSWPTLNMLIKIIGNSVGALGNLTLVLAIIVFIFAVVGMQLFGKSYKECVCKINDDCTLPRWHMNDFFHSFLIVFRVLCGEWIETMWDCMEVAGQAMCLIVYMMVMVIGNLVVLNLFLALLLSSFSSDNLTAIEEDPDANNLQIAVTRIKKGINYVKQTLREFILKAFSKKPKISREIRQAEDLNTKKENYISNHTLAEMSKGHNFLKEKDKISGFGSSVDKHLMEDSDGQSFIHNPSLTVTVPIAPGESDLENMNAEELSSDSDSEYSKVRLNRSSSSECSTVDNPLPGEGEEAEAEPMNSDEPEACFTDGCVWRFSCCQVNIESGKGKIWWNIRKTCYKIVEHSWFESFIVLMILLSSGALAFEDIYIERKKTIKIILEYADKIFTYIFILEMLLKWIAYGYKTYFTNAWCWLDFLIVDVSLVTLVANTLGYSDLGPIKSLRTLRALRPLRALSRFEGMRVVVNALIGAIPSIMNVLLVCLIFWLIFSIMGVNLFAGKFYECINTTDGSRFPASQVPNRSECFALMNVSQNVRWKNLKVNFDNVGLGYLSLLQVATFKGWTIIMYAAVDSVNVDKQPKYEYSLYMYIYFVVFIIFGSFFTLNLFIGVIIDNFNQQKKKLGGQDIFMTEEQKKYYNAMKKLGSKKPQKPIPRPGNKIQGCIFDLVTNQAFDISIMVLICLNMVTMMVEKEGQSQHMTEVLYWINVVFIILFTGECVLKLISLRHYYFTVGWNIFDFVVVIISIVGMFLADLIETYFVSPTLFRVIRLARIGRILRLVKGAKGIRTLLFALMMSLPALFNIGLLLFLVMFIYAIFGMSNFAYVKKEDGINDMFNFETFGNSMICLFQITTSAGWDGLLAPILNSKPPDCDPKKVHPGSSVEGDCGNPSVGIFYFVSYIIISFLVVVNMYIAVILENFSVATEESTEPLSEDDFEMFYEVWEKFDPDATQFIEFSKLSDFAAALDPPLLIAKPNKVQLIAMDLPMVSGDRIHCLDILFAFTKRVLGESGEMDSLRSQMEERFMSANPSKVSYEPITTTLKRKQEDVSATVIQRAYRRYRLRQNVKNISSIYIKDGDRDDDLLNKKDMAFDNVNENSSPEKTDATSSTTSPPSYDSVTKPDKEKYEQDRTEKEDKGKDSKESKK
The entries below are paired with their reported IC50.
Readout name: IC50

1) COc1ccc(C(=O)N2CCC3(CC2)c2ccc(C(=O)C(C)C)n2CCN3C)cc1Cl : ≤ 2 µM
2) CN1CCn2c(C(=O)C(F)(F)F)ccc2C12CCN(C(=O)c1ccc(OCC3CC3)cc1)CC2 : ≤ 2 µM
3) COc1cc(C(=O)N2CCC3(CC2)c2ccc(C(F)(F)F)n2CCN3C2CC2)ccc1OC(C)C : ≤ 2 µM
